In this section we review reported inhibition zone (IZ) values for a set of molecules.
- System: Candida albicans
- assayOverview: Antifungal activity against Candida albicans assessed as diameter of zone inhibition
- Format: functional
Unit mm implied. Number only.

Clc1ccc(C(Cn2ccnc2)OCc2csc3c(Cl)cccc23)c(Cl)c1 (stereo not drawn) ... 20

## Input Tell me the measured inhibition zone (IZ) of `C/C=C/N1CCN(c2nc3ccccc3nc2-c2cccc(C)c2)CC1` , please.
## Output 14

## Input What value of measured inhibition zone (IZ) is listed for `C=CCNN1CCN(c2nc3ccccc3nc2-c2cccc(C)c2)CC1` ?
## Output 13

## Input Look up inhibition zone (IZ): `Cc1cccc(-c2nc3ccccc3nc2N2CCN(C)CC2)c1`
## Output 14

## Input // query inhibition zone (IZ) value for entry `Cc1cccc(-c2nc3ccccc3nc2N2CCN(Cc3ccccc3)CC2)c1`
## Output 14

## Input If you can, please state the reported inhibition zone (IZ) value of COC(=O)C1C(C(=O)OC)C(C(=O)c2ccccc2)N2N=C(c3ccc(Cl)cc3)C=CC12 (stereo not drawn) .
## Output 25

## Input Would you kindly share the measured inhibition zone (IZ) for CCOC(=O)C1CC(C(=O)c2ccccc2)N2N=C(c3ccc(Cl)cc3)C=CC12 (stereo not drawn) ?
## Output 24

## Input Give the measured inhibition zone (IZ) of COC(=O)C1C(C(=O)OC)C(C(=O)c2ccc([N+](=O)[O-])cc2)N2N=C(c3ccc(Cl)cc3)C=CC12 (stereo not drawn) .
## Output 24

###

Overview of reported MIC across a group of compounds:
- System: Candida albicans
- assayOverview: Antifungal activity against Candida albicans MTCC 7315 assessed as inhibition of fungal growth incubated for 24 hrs
- Assay type: functional
All answers are understood in µg/mL, so give the number only.

Fc1ccc(-c2nnc3c4ccc(C(F)(F)F)nc4nc(-c4ccco4)n23)c(Cl)c1 ... 3.9

## Input Consider the compound shown here: `O=[N+]([O-])c1ccc(-c2nnc3c4ccc(C(F)(F)F)nc4nc(-c4ccco4)n23)cc1` What is its recorded MIC?
## Output 3.9

## Input What value of measured MIC is listed for `Fc1ccc(-c2nnc3c4ccc(C(F)(F)F)nc4nc(-c4ccccc4)n23)c(Cl)c1` ?
## Output 3.9

## Input Could you share which MIC value was measured for Clc1ccc(COC(Cn2ccnc2)c2ccc(Cl)cc2Cl)c(Cl)c1 (centres undefined) [MICONAZOLE] ?
## Output 0.39

###

- Tested on: Botrytis cinerea
- assayOverview: Antifungal activity against Botrytis cinerea assessed as reduction in fungal growth at 50 ug/ml relative to control
- Type: functional
1 (yes) means recorded inhibition at 50 µg/mL is 90% or above; 0 (no) means it is below 90%.

Cc1nc(Oc2ccc(C(=O)Nc3ccc(OC(F)(F)F)c(Cl)c3)cc2)cc(C(F)(F)F)n1 ... 1 (yes)
Cc1nc(Oc2ccc(C(=O)Nc3ccc(OC(F)(F)F)cc3)cc2)cc(C(F)(F)F)n1 ... 1 (yes)

## Input API: above_or_equal(metric=inhibition at 50 µg/mL, cutoff=90%) for item Cc1cc(C)nc(Nc2ccccc2)n1 [PYRIMETHANIL]
## Output 0 (no)

## Input Given `Cc1nc(Oc2ccc(C(=O)Nc3ccc(Br)c(Cl)c3)cc2)cc(C(F)(F)F)n1` , state whether its inhibition at 50 µg/mL is at least 90%.
## Output 0 (no)

###

- Test system: Candida albicans
- assayOverview: Antifungal activity against Candida albicans
- Format: functional
Quick list: MIC per entry.

These solved cases illustrate the format of a correct answer.
CCOC(=O)c1sc2nc3c(nc2c1N)c(C)nn3-c1ccccc1 ... 5 µg/mL
COC1=CC(=O)C[C@@H](C)[C@]12Oc1c(Cl)c(OC)cc(OC)c1C2=O ... 500 µg/mL
O=C(CN1CCn2c(nnc2C(F)(F)F)C1)Nc1nc2ccccc2s1 ... 250 µg/mL
Cc1nn(-c2ccccc2)c2nc3sc(C(=O)OCC(=O)c4ccccc4)c(N)c3nc12 ... 5 µg/mL
Cc1nc2c(sc3nc4c(nc32)c(C)nn4-c2ccccc2)c(=O)o1 ... 3 µg/mL
O=c1cc[nH]c(=O)n1N=C1CC(c2ccc(O)cc2)SC(c2ccc(O)cc2)C1 (stereo unspecified) ... 0.25 µg/mL
O=c1cc[nH]c(=O)n1N=C1CC(c2ccc(Cl)cc2)SC(c2ccc(Cl)cc2)C1 (stereo unspecified) ... 0.25 µg/mL
Cc1cc(Nc2ccc(=O)n(-c3ccccc3)n2)no1 ... 18 µg/mL
COc1ccc(C2CC(=Nn3c(=O)cc[nH]c3=O)CC(c3ccc(OC)cc3)S2)cc1 (stereo unspecified) ... 0.25 µg/mL
Cl.FC(F)(F)c1nnc2n1CCNC2 ... 250 µg/mL

## Input Which MIC reading was recorded for the compound `CCOC(=O)Cc1nc2c3[se]c4nc5c(nc4c3ncn2n1)c(C)nn5-c1ccccc1` ?
## Output 8 µg/mL

###

- Tested on: Candida tropicalis
- assayOverview: Antifungal activity against Candida tropicalis assessed as inhibition of fungal growth
- Type: functional
Documented MIC across a set of molecules
Use µM as the unit, but write only the number.

Nc1nc(-c2ccc(Cl)cc2)cc(-c2cnc(Cl)cn2)n1 ... 97.3

## Input I'd like to know its MIC. The molecule in question is `COc1ccc(-c2cc(-c3cnc(Cl)cn3)nc(N)n2)cc1`
## Output 97.3

## Input Recorded MIC of `Nc1nc(-c2cnc(Cl)cn2)cc(-c2ccc(F)cc2F)n1` , please.
## Output 50

## Input GET /values?readout=MIC&item= `Nc1nc(-c2cnc(Cl)cn2)cc(-c2ccc(Cl)cc2Cl)n1`
## Output 45.4

## Input Bench note: what MIC did `Nc1nc(-c2cccnc2)cc(-c2cnc(Cl)cn2)n1` show?
## Output 110

## Input // returns reported MIC for input `Nc1nc(-c2ccc([N+](=O)[O-])cc2)cc(-c2cnc(Cl)cn2)n1`
## Output 97.3

## Input Value lookup for MIC; key = `CN(C)c1ccc(-c2cc(-c3cnc(Cl)cn3)nc(N)n2)cc1`
## Output 97.3

## Input # query: MIC of entry `Nc1nc(-c2cnc(Cl)cn2)cc(-c2ccc[nH]2)n1`
## Output 110

## Input Which MIC is listed for `Nc1nc(Cc2ccco2)cc(-c2cnc(Cl)cn2)n1` ?
## Output 110

## Input Please look up its MIC: `Nc1nc(-c2ccccc2)cc(-c2cnc(Cl)cn2)n1`
## Output 97.3

## Input Please give the measured MIC for this molecule: `Nc1nc(-c2cnc(Cl)cn2)cc(-c2cccs2)n1`
## Output 110

## Input Query (molecule): `Nc1nc(-c2ccccn2)cc(-c2cnc(Cl)cn2)n1` ; field requested: MIC
## Output 110

###

- Test system: Aspergillus niger
- assayOverview: Antifungal activity against Aspergillus niger assessed as zone of inhibition by disc diffusion method
- Assay type: functional
Below, each of the molecules is paired with its reported inhibition zone (IZ) value.
Quick note: give the figure in mm, leave out the unit.

COc1ccc(C2c3c([nH]c(=O)[nH]c3=O)OC3N=CN(C(=S)Nc4ccccc4)C(=N)C32)cc1 (stereo unspecified) ... 10

## Input Find the recorded inhibition zone (IZ) belonging to COc1ccc(C2C3C(C)=NN(c4ccccc4)C3N=C3SCCN32)cc1 (stereo unspecified) and report it.
## Output 24

## Input Value lookup for inhibition zone (IZ); key = CC1=NN(c2ccccc2)C2N=C3SCCN3C(c3ccc(Cl)cc3)C12 (stereo unspecified)
## Output 24

## Input Data request, read-out inhibition zone (IZ), for CC1=NN(c2ccccc2)C2N=C3SCCN3C(c3ccc(F)cc3)C12 (stereo unspecified)
## Output 24

## Input Can you share its inhibition zone (IZ)? I mean this molecule: CC1=NN(c2ccccc2)C2N=C3SCCN3C(c3cccc(Cl)c3)C12 (stereo unspecified)
## Output 24

## Input Item CCC(C)N1C=NC2Oc3[nH]c(=O)[nH]c(=O)c3C(c3ccc(OC)cc3)C2C1=N (stereo unspecified) has what recorded inhibition zone (IZ)?
## Output 10

###

- Test system: Candida albicans
- assayOverview: Antifungal activity against azole-resistant Candida albicans ATCC 18804 assessed as fungal growth inhibition incubated for 24 hrs by CLSI protocol based broth microdilution method
- Format: functional
Parameter: MIC. Scope: all listed entries.
Give your result in µg/mL as a bare value.

Solved entries (count: 3):
O=c1ccc(=O)n(-c2nc(-c3ccc([N+](=O)[O-])cc3)cs2)[nH]1 ... 3.9
O=c1ccc(=O)n(-c2nc(-c3cc4c(ccc5ccccc54)oc3=O)cs2)[nH]1 ... 0.9
C[C@@H]1[C@H](O)[C@@H](C)/C=C/C=C/C=C/C=C/C=C/C=C/C=C/[C@H](O[C@@H]2O[C@H](C)[C@@H](O)[C@H](N)[C@@H]2O)C[C@@H]2O[C@](O)(C[C@@H](O)C[C@@H](O)[C@H](O)CC[C@@H](O)C[C@@H](O)CC(=O)O[C@H]1C)C[C@H](O)[C@H]2C(=O)O ... 0.2

Let us examine a further case.
## Input Requested read-out: MIC. Entry: `O=c1ccc(=O)n(-c2nc(-c3cccs3)cs2)[nH]1`
## Output 1.9
